Kindly state pEC50 for each of the entries shown.
target: CLK2 kinase (Homo sapiens, UniProt P49760); test: CLK2 kinase activity assay (Z-lyte FRET); conditions: Z-lyte Ser/Thr 6 peptide, 60 μM ATP, 1 h at room temperature
Sequence (P49760 whole entry): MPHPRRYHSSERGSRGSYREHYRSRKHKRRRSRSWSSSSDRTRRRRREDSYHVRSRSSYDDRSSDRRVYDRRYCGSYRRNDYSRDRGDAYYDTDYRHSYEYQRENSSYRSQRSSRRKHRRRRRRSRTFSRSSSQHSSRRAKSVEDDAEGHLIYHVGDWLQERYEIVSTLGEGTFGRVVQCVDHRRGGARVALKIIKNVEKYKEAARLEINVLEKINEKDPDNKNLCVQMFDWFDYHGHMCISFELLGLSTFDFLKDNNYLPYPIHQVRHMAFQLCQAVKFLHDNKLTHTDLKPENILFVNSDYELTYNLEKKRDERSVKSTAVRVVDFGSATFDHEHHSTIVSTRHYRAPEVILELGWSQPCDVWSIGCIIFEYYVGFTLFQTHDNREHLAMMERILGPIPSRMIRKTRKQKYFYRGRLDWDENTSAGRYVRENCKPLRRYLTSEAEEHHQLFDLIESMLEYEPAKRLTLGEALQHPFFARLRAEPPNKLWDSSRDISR
pEC50 here: minus log base 10 of the concentration, concentration in moles per litre.

Asked: # lookup: pEC50 of `CN1CCC2(CC1)CN(c1cc(C(=O)Nc3cc4cc(-c5cnn(C)c5CN5CCCCC5)cnc4cn3)ccn1)C2`
Given back: 8.05

Asked: `CC(C)CC(=O)Nc1cncc(-c2cc3c(-c4nc5c(-c6cc(F)cc(OCCN7CCCC7)c6)cncc5[nH]4)n[nH]c3cn2)c1` , same question.
Given back: 9.00

Asked: `CC(C)(C)CC(=O)Nc1cncc(-c2cc3c(-c4cc5cnccc5[nH]4)n[nH]c3cn2)c1` , same question.
Given back: 8.52

Asked: `c1cncc(-c2cncc3[nH]c(-c4n[nH]c5ncc(-c6cncnc6)cc45)cc23)c1` , same question.
Given back: 8.40

Asked: `Nc1cncc(-c2cnc3[nH]nc(-c4cc5c(-c6ccncc6)nccc5[nH]4)c3c2)c1` , same question.
Given back: 8.70

Asked: `Nc1cncc(-c2cnc3[nH]nc(-c4cc5c(-c6ccccc6F)ccnc5[nH]4)c3c2)c1` , same question.
Given back: 8.22

Asked: `CN1CCN(c2cc(C(=O)Nc3ncc4ccc(-c5cnn(C)c5)cc4n3)ccn2)CC1` , same question.
Given back: 8.22

Asked: `Cc1[nH]nc(C(=O)Nc2ccc(OC3CCN(C)CC3)nc2)c1/C=C/c1cccnc1` , same question.
Given back: 8.15

Asked: `c1cncc(-c2cc3c(-c4cc5cccnc5[nH]4)n[nH]c3cn2)c1` , same question.
Given back: 8.40

Asked: `CC(C)C(=O)Nc1cncc(-c2cc3c(-c4cc5c(-c6cc(F)cc(CNS(C)(=O)=O)c6)nccc5[nH]4)n[nH]c3cn2)c1` , same question.
Given back: 8.52

Asked: `O=C(Nc1c[nH]nc1C(=O)Nc1cncc(-c2cccc(F)c2)c1)c1cncc(OC2CCNCC2)c1` , same question.
Given back: 8.00

----------
biological target: CLK2 kinase (Homo sapiens, UniProt P49760); assay: CLK2 kinase activity assay (Z-lyte FRET); details: Z-lyte Ser/Thr 6 peptide, 60 μM ATP, 1 h at room temperature
endpoint: EC50 (nM)
Field: numeric (nM). Do not append units.

Asked: # lookup: EC50 of `CN(C)Cc1cncc(-c2ccc3[nH]nc(-c4cc5cccnc5[nH]4)c3n2)c1`
Given back: 7

Asked: `CC(C)(C)C(=O)Nc1cncc(-c2ccc3[nH]nc(-c4nc5c(N6CCCCC6)cncc5[nH]4)c3c2)c1` , same question.
Given back: 11

Asked: `O=C(Nc1cncc(-c2ccc3[nH]nc(-c4cc5c(-c6cccnc6)cncc5[nH]4)c3c2)c1)c1ccccc1` , same question.
Given back: 7

----------
target: CLK3 kinase (Homo sapiens, UniProt P49761); assay: CLK3 kinase activity assay (Z-lyte FRET); conditions: Z-lyte Ser/Thr 18 peptide, 156 μM ATP, 1 h at room temperature
Sequence (P49761 whole entry): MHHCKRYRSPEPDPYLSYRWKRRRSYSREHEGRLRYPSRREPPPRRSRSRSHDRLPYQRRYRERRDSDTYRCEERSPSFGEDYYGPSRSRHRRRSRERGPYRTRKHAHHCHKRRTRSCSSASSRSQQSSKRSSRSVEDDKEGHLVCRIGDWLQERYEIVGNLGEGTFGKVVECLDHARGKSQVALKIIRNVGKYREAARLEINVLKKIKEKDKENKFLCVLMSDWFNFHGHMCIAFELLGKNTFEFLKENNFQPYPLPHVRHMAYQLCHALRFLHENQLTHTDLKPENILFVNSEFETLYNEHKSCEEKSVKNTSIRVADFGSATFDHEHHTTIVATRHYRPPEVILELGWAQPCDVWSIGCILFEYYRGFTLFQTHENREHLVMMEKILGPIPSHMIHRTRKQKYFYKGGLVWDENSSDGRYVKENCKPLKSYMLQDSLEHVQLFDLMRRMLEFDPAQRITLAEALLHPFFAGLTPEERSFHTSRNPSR
endpoint: EC50 (nM)
Field: numeric (nM). Do not append units.

Asked: # lookup: EC50 of `CN(C)Cc1cncc(-c2ccc3[nH]nc(-c4cc5c(N6CCCCC6)cccc5[nH]4)c3c2)c1`
Given back: 3660

Asked: `CN1CCC(n2cc(C(=O)Nc3cc4cc(-c5cnn(C)c5)ccc4cn3)cn2)CC1` , same question.
Given back: 6

Asked: `c1cncc(-c2ccc3[nH]nc(-c4nc5c(-c6cccnc6)cncc5[nH]4)c3n2)c1` , same question.
Given back: 177

Asked: `Cn1cncc1-c1ccc2cnc(NC(=O)c3ccnc(N4CC(N)C4)c3)cc2c1` , same question.
Given back: 11

----------
target: UniProt:P49760; experiment: CLK2 kinase activity assay (Z-lyte FRET); conditions: Z-lyte Ser/Thr 6 peptide, 60 μM ATP, 1 h at room temperature
endpoint: EC50 (nM)
Field: numeric (nM). Do not append units.

Asked: # lookup: EC50 of `CN1CCC(Oc2ccc(NC(=O)c3n[nH]cc3/C=C/c3cccnc3)cn2)CC1`
Given back: 4

Asked: `CCCC(=O)Nc1cncc(-c2cnc3[nH]nc(-c4nc5c(-c6ccoc6)cccc5[nH]4)c3c2)c1` , same question.
Given back: 4

Asked: `Nc1cncc(-c2ccc3[nH]nc(-c4cc5c(-c6ccncc6)ccnc5[nH]4)c3n2)c1` , same question.
Given back: 4

----------
Kindly state EC50 for each of the entries shown.
tested on: primary human mesenchymal stem cells (hMSCs); experiment: Chondrogenesis screening using primary human mesenchymal stem cells; format: cell-based; details: Homo sapiens, Mesenchymal stem cells, hMSC chondrogenesis; concentration required to induce 50% levels of chondrogenesis with TGF-β3 as positive control; read-out: Conc (nM) of 50% TGF-β3 activity
Field: numeric (nM). Do not append units.

Asked: # lookup: EC50 of `COc1cccc(-c2nccc3[nH]c(-c4n[nH]c5ccc(-c6cccnc6)nc45)nc23)c1`
Given back: 30

Asked: `CN(C)CCNc1cc(F)cc(-c2cccc3[nH]c(-c4n[nH]c5cnc(-c6cncc(N)c6)cc45)cc23)c1` , same question.
Given back: 100

Asked: `CC(C)(C)C(=O)Nc1cncc(-c2cnc3[nH]nc(-c4nc5c(-c6ccoc6)cncc5[nH]4)c3c2)c1` , same question.
Given back: 30

Asked: `Cc1cn(-c2ccnc3[nH]c(-c4n[nH]c5ccc(-c6cncc(NC(=O)C7CCC7)c6)nc45)nc23)cn1` , same question.
Given back: 300

Asked: `COc1cncc(C(=O)Nc2c[nH]nc2C(=O)Nc2ccc(OCCN3CCCC3)nc2)c1` , same question.
Given back: 10

----------
molecular target: CLK3 kinase (Homo sapiens, UniProt P49761); assay: CLK3 kinase activity assay (Z-lyte FRET); assay type: biochemical; conditions: Z-lyte Ser/Thr 18 peptide, 156 μM ATP, 1 h at room temperature;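 further: kinase activity read as coumarin/fluorescein emission ratio by FRET, unphosphorylated peptide as 0% and phosphorylated peptide as 100% control, values from non-linear regression of dose-response curves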
# strict inequality: EC50 < 0.8 µM yields satisfied, everything else yields not satisfied

Asked: EC50 strictly < 0.8 µM for this molecule? CC(C)C(=O)Nc1cncc(-c2cnc3[nH]nc(-c4cc5c(-c6cc(F)cc(CNS(C)(=O)=O)c6)cncc5[nH]4)c3c2)c1 [compound 519]
Given back: satisfied

Asked: Fc1ccc(-c2nccc3[nH]c(-c4n[nH]c5ccc(-c6cncc(CN7CCCC7)c6)cc45)cc23)cc1 [compound 315] , same question.
Given back: satisfied

Asked: c1cncc(-c2ccc3[nH]nc(-c4cc5c(-c6cccnc6)ccnc5[nH]4)c3c2)c1 [compound 342] , same question.
Given back: satisfied

Asked: O=C(Nc1c[nH]nc1C(=O)Nc1ccc(N2CCCCC2)nc1)c1cncc(OC2CCNCC2)c1 [compound 13] , same question.
Given back: not satisfied

Asked: c1cncc(-c2ccnc3[nH]c(-c4n[nH]c5cnc(-c6cncnc6)cc45)cc23)c1 [compound 374] , same question.
Given back: not satisfied

Asked: CN1CCN(c2ccnc3[nH]c(-c4n[nH]c5ccc(-c6cncc(N)c6)nc45)nc23)CC1 [compound 216] , same question.
Given back: not satisfied

Asked: c1cncc(-c2ccc3[nH]nc(-c4nc5cnccc5[nH]4)c3n2)c1 [compound 201] , same question.
Given back: not satisfied

Asked: CC(C)C(=O)Nc1cncc(-c2ccc3[nH]nc(-c4nc5c(-c6ccccc6F)cncc5[nH]4)c3n2)c1 [compound 174] , same question.
Given back: not satisfied

Asked: Cc1ncc(NC(=O)c2n[nH]c3ccc(-c4cnn(C5CCN(C)CC5)c4)cc23)s1 [compound 114] , same question.
Given back: satisfied

Asked: CCCCC(=O)Nc1cncc(-c2cc3c(-c4cc5c(-c6cccnc6)ccnc5[nH]4)n[nH]c3cn2)c1 [compound 351] , same question.
Given back: not satisfied

Asked: CN1CCN(c2cc(C(=O)Nc3ncc4ccc(-c5cnn(C)c5)cc4n3)ccn2)CC1 [compound 607] , same question.
Given back: satisfied

Asked: Nc1cncc(-c2ccc3[nH]nc(-c4nc5c(-c6ccccc6F)nccc5[nH]4)c3n2)c1 [compound 169] , same question.
Given back: satisfied

Asked: O=C1COc2cccc(c2)-c2cncc3[nH]c(nc23)-c2n[nH]c3ccc(cc23)-c2cncc(c2)N1 [compound 620] , same question.
Given back: satisfied

----------
Kindly state pEC50 for each of the entries shown.
biological target: CLK2 kinase (Homo sapiens, UniProt P49760); test: CLK2 kinase activity assay (Z-lyte FRET); settings: Z-lyte Ser/Thr 6 peptide, 60 μM ATP, 1 h at room temperature;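 further: FRET read-out as coumarin to fluorescein emission ratio, unphosphorylated peptide as 0% and phosphorylated peptide as 100% controls, duplicate reactions, non-linear regression fit of dose-response curves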
pEC50 here: minus log base 10 of the concentration, concentration in moles per litre.

Asked: # lookup: pEC50 of CC(C)(C)CC(=O)Nc1cncc(-c2cc3c(-c4cc5c(-c6ccccc6F)nccc5[nH]4)n[nH]c3cn2)c1 [compound 327]
Given back: 8.00

Asked: CC(C)(C)C(=O)Nc1cncc(-c2ccc3[nH]nc(-c4cc5c(-c6ccncc6)ccnc5[nH]4)c3c2)c1 [compound 390] , same question.
Given back: 7.96

Asked: CN1CCN(c2nccc3[nH]c(-c4n[nH]c5cnc(-c6cncc(NC(=O)C(C)(C)C)c6)cc45)cc23)CC1 [compound 478] , same question.
Given back: 8.05
